# assayed-target: Luciferin 4-monooxygenase (Photinus pyralis)
# experimental-protocol: native FLuc inhibition dose response – biochemical, luminescence, artefact control for HSP90 inhibitor project (AID 1912)
# assay-context: purified firefly luciferase
Calls of active or inactive are those of the source. The rule behind the calls is not given here.
observation-type: IC50

O=[N+]([O-])c1ccc(S(=O)(=O)N2CCN=C2SCc2ccc(F)cc2)cc1 = > 60 µM (inactive)
Cc1ccc(/C=C2/C(=O)c3ccc(C(=O)O)cc3C2=O)o1 = > 60 µM (inactive)
O=C(CSc1ncccc1C(=O)O)c1ccc2ccccc2c1 = inactive
COC(=O)NCCOC(=O)N(O)c1ccc(Br)cc1 = > 60 µM (inactive)
C=CCOc1c(CNc2cccc(C(=O)O)c2)cccc1OC = > 60 µM (inactive)
O=C(CN1C(=O)c2ccccc2S1(=O)=O)c1ccc2c(c1)OCCO2 = > 60 µM (inactive)

Provide value of IC50 for this record tested with Luciferin 4-monooxygenase (Photinus pyralis): COC(=O)c1ccccc1NC1=C/C(=N\S(=O)(=O)c2ccc(C(=O)O)cc2)c2ccccc2C1=O > 60 µM (inactive)

Record COc1cc(/C=C/[N+](=O)[O-])ccc1OCc1cccc(C(=O)O)c1 : what is its IC50 with Luciferin 4-monooxygenase (Photinus pyralis)? inactive

Kindly state the measured IC50 obtained for [O-]/[N+](=C\c1ccco1)c1ccc(Cl)cc1 with Luciferin 4-monooxygenase (Photinus pyralis). > 60 µM (inactive)

Lab note: need IC50 for COC(=O)c1ccccc1OCCCOc1ccc(C=O)cc1OC on Luciferin 4-monooxygenase (Photinus pyralis), anyone have it? > 60 µM (inactive)

API: value(readout= IC50, system= Luciferin 4-monooxygenase (Photinus pyralis), query= COc1ccc(N(/N=C2\Sc3ccccc3C2=O)C(C)=O)cc1 ) > 60 µM (inactive)

###

# assayed-target: Luciferin 4-monooxygenase (Photinus pyralis)
# experimental-protocol: native FLuc inhibition dose response – biochemical, luminescence, artefact control for HSP90 inhibitor project (AID 1912)
# assay-context: purified firefly luciferase
Calls of active or inactive are those of the source. No rule for the calls is given here.
observation-type: IC50

Here's what some known entries look like.
CC(C)(C)c1ccc(C(=O)c2c[nH]c(C(=O)O)c2)cc1 = inactive
CCN(CC)c1ccc(SS(=O)(=O)O)cc1 = > 60 µM (inactive)
O=C1C(Nc2ccccc2)=C/C(=N/S(=O)(=O)c2cccs2)c2ccccc21 = inactive
CC1=NN(c2ccccc2)C(=O)/C1=C\N(O)c1ccccc1 = > 60 µM (inactive)
Cc1nc2ccc(C(=O)O)cc2[nH]1 = > 60 µM (inactive)

Moving on to another molecule below.
Reported IC50 for COc1cc(N2Cc3ccccc3C2)ccc1C=O : what is it? > 60 µM (inactive)

###

# assayed-target: Luciferin 4-monooxygenase (Photinus pyralis)
# experimental-protocol: native FLuc inhibition dose response – biochemical, luminescence, artefact control for HSP90 inhibitor project (AID 1912)
# assay-context: purified firefly luciferase
The source made the active and inactive calls. No rule for the calls is given here.
observation-type: IC50

CS(=O)(=O)c1ccc(-c2cn3cc(C(=O)O)ccc3n2)cc1 = inactive
O=C(CN1C(=O)c2ccccc2S1(=O)=O)c1ccccc1Cl = inactive
C=CCn1c(NS(=O)(=O)c2ccccc2)c(S(=O)(=O)c2ccc(C)cc2)c2nc3ccccc3nc21 = > 60 µM (inactive)
CCc1ccc(S(=O)(=O)/N=C2\C=C(Nc3ccc(C(=O)O)cc3)C(=O)c3ccccc32)cc1 = > 60 µM (inactive)

Given the entry CC(=O)Oc1ccc(Nc2ccccc2)cc1 , what IC50 was observed with Luciferin 4-monooxygenase (Photinus pyralis)? > 60 µM (inactive)

Query for Luciferin 4-monooxygenase (Photinus pyralis): what IC50 does the record show for COc1ccc(C(=O)Oc2ccc(/C=N/Nc3ccc(Cl)c(C(=O)O)c3)cc2OC)cc1 ? > 60 µM (inactive)

Notebook: pull reported IC50 for Luciferin 4-monooxygenase (Photinus pyralis), entry COC(=O)c1ccc(COc2ccc3c(c2)CCC3)o1 > 60 µM (inactive)

###

# assayed-target: Luciferin 4-monooxygenase (Photinus pyralis) (UniProt P08659)
# Sequence (P08659 whole entry, looked up): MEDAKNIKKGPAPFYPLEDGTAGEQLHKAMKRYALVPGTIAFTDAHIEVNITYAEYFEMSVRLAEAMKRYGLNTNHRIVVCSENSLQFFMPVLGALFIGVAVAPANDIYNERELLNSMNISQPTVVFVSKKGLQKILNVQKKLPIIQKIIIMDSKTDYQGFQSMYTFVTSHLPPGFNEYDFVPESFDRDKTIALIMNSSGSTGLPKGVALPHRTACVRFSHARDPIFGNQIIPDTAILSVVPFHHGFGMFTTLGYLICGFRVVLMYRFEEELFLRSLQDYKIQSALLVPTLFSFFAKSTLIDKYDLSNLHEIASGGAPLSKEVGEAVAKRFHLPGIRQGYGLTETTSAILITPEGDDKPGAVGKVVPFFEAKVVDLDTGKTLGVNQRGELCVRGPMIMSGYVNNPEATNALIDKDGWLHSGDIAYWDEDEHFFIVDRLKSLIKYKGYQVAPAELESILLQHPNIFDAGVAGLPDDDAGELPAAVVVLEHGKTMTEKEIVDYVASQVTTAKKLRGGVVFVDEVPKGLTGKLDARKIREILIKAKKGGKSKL
# experimental-protocol: native FLuc inhibition dose response – biochemical, luminescence, artefact control for HSP90 inhibitor project (AID 1912)
# assay-context: purified firefly luciferase
The source made the active and inactive calls. The rule behind the calls is not given here.
compounds and their reported IC50

Below, 8 compounds whose answers are already recorded.
Cc1cc2ccccc2n1CCNC(=O)c1cccs1 = > 60 µM (inactive)
C=CCOC(=O)c1sc(NC(=O)c2ccc(OC)cc2)nc1C = > 60 µM (inactive)
COC(=O)c1cc(C)nc2c1C(=O)C(=O)C=C2N1CCOCC1 = > 20 µM (inactive)
Cc1oc(-c2ccc(-c3ccccc3)cc2)nc1CN(C)C1CCOC1 (stereo unspecified) = > 60 µM (inactive)
COCC(C)n1c(C)cc(C(=O)Cn2nc(C(=O)O)c3ccccc3c2=O)c1C (stereo unspecified) = > 60 µM (inactive)
CCOc1ccc(-c2nc(CN(Cc3ccccc3)C[C@@H]3CCC(=O)N3)c(C)o2)cc1 = > 60 µM (inactive)
O=C(O)CSCC(=O)Nc1ccc(C2CCCCC2)cc1 = > 60 µM (inactive)
Cc1nc(NC(=O)c2ccc(F)cc2)sc1C(=O)Nc1ccc2c(c1)CCC2 = > 60 µM (inactive)

Query: IC50; subject: CN1C(=O)S/C(=C/c2ccc(OCc3cccc(C(=O)O)c3)cc2)C1=O > 20 µM (inactive)

# input compound: O=C(O)c1cc(N/N=C/c2cccnc2)ccc1Cl ; wanted: its IC50 > 60 µM (inactive)

###

# assayed-target: Luciferin 4-monooxygenase (Photinus pyralis) (UniProt P08659)
# experimental-protocol: native FLuc inhibition dose response – biochemical, luminescence, artefact control for HSP90 inhibitor project (AID 1912)
# assay-context: purified firefly luciferase
The source made the active and inactive calls. How the calls were made is not given here.
observation-type: IC50

O=C(O)c1ccc(NC2=C/C(=N/S(=O)(=O)c3ccccc3)c3ccccc3C2=O)cc1 = > 60 µM (inactive)
COC(=O)c1ccc(N/C=C/C(=O)c2ccccc2)cc1 = inactive
COC(=O)c1ccc2nc(NC(=O)C3CC3)sc2c1 = > 60 µM (inactive)
CNC(=S)N/N=C/c1ccc(-c2ccc(C(=O)O)cc2)o1 = > 60 µM (inactive)
COc1ccccc1NC(=O)c1coc(=O)c(Br)c1 = > 60 µM (inactive)
CC(=O)Nc1ccc(NC2=C/C(=N/S(=O)(=O)c3cccs3)c3ccccc3C2=O)cc1 = > 60 µM (inactive)
CCOC(=O)C1=C(c2ccc(OC)cc2)C(=O)c2ccccc2C1=O = > 60 µM (inactive)
CC(=O)CSc1ccc(-c2nc3ccccc3[nH]2)cn1 = > 60 µM (inactive)

Param item = Cc1ccc(C(=O)CSc2ccccc2C(=O)O)cc1 ; retrieve measured IC50. inactive

Consider the compound COc1cc(/C=N/Nc2ccc(Cl)c(C(=O)O)c2)ccc1OC(=O)c1cccs1 and give its measured IC50. > 60 µM (inactive)

// query IC50 value for entry CCN(CC)c1ccc2cc(NC(=O)CCC(=O)O)c(=O)oc2c1 > 60 µM (inactive)

Give the measured IC50 of Cc1cc(C)c2nc(N3CCC(C(=O)NCCCN4CC(C)CC(C)C4)CC3)sc2c1 (stereo not given) . > 60 µM (inactive)

IC50 lookup needed for O=C1c2cc(F)ccc2-n2c1nc1ccccc1c2=O , thanks. > 60 µM (inactive)

Any idea what its IC50 is? The compound is Nc1cc(-c2ccccc2)ccc1O > 60 µM (inactive)

Tell me the measured IC50 of O=C(O)c1cccc(NC(=S)NC(NC(=O)c2cccc([N+](=O)[O-])c2)C(Cl)(Cl)Cl)c1 (stereo not given) , please. > 60 µM (inactive)

Quick check: IC50 of CCOC(=O)c1csc(COc2ccc(OC)cc2)n1 ? > 60 µM (inactive)

Using the record for CCC(=O)Nc1ccccc1C(=O)OCC(=O)c1ccccc1 , report its IC50. > 60 µM (inactive)

// lookup IC50 for O=[N+]([O-])/C=C/c1ccc2c(ccn2Cc2ccccc2)c1 > 60 µM (inactive)

May I ask what IC50 has been recorded for Cc1ccccc1NC1=C/C(=N\S(=O)(=O)c2cccs2)c2ccccc2C1=O ? > 20 µM (inactive)

What measured IC50 goes with Cc1nc(NC(=O)/C=C/c2ccccc2)sc1C(=O)Nc1ccccc1Cl ? > 60 µM (inactive)

###

# assayed-target: Luciferin 4-monooxygenase (Photinus pyralis) (UniProt P08659)
# experimental-protocol: native FLuc inhibition dose response – biochemical, luminescence, artefact control for HSP90 inhibitor project (AID 1912)
# assay-context: purified firefly luciferase
Calls of active or inactive are those of the source. The rule behind the calls is not given here.
observation-type: IC50

Worked examples, 8 compounds total:
COc1ccccc1Nc1nn2c(=O)c3ccc(C(=O)NCc4cccnc4)cc3nc2s1 = > 60 µM (inactive)
Cc1ccccc1NC1=C/C(=N\S(=O)(=O)c2ccc(C(=O)O)cc2)c2ccccc2C1=O = inactive
Cc1ccc(OCc2ccc(C(=O)O)o2)cc1C = inactive
O=C(OCc1ccccn1)c1ccc(COc2ccc3ccccc3c2)o1 = > 60 µM (inactive)
CC(=O)Oc1ccccc1/C=C/c1nc2ccccc2c(=O)o1 = > 60 µM (inactive)
Nc1c(-c2ccccc2)cnn1-c1ccc(C(=O)O)cc1 = inactive
Cc1cccc(N(O)C(=O)Nc2cccc(Cl)c2)c1 = > 60 µM (inactive)
Cc1ccc(/C=C2\SC(=S)N(CCCC(=O)Nc3ccccn3)C2=O)cc1 = > 60 µM (inactive)

Quick one: IC50 of COc1ccc(-c2cn3c(C)c(C(=O)Nc4cccc(C)n4)sc3n2)cc1 ? inactive

Requested read-out: IC50. Entry: COc1cc(/C=N/Nc2ccc(Cl)c(C(=O)O)c2)ccc1OC(=O)c1ccco1 > 60 µM (inactive)
